Consider the following compounds and their measured pKi readings.
- STUDY TARGET: human cannabinoid CB2 receptors (Homo sapiens)
- Construct: expressed in transfected cells; host or cells: CHO cells, membrane preparations
- Sequence (P34972 whole entry): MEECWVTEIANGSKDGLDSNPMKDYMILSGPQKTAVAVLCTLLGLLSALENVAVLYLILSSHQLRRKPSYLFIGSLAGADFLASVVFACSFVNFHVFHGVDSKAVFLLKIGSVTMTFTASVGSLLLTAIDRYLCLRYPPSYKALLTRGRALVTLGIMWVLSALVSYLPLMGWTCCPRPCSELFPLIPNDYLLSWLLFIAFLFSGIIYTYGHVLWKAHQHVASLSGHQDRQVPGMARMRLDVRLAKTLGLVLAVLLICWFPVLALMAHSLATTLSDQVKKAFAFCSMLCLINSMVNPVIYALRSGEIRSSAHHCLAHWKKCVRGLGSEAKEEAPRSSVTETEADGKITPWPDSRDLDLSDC
- ASSAY PROTOCOL: In vitro affinity for cannabinoid-CB2 receptors, [3H]CP-55,940 radioligand binding, CHO cell membranes
- MEASUREMENT CONTEXT: means of at least two independent experiments, read-out: receptor binding h-CB2 receptor Ki
pKi: −log10 of the molar value.
MEASURED METRIC: pKi

[
  {
    "COMPOUND": "CN=C(NS(=O)(=O)N1CCC(C(F)(F)F)CC1)N1C[C@H](c2ccccc2)C(c2ccc(Cl)cc2)=N1",
    "COMPARISON OPERATOR": "=",
    "VALUE REPORTED": 6.50
  },
  {
    "COMPOUND": "CN/C(=N/S(=O)(=O)N1CCCCC1)N1C[C@H](c2ccccc2)C(c2ccc(Cl)cc2)=N1 [compound 24, reference compound]",
    "COMPARISON OPERATOR": "=",
    "VALUE REPORTED": 5.46
  },
  {
    "COMPOUND": "CN=C(NS(=O)(=O)N1CCC(C(F)(F)F)CC1)N1C[C@@H](c2ccccc2)C(c2ccc(Cl)cc2)=N1",
    "COMPARISON OPERATOR": "<",
    "VALUE REPORTED": 6.00
  }
]

###

Entries with reported pKi on human cannabinoid CB1 receptors (Homo sapiens, UniProt P21554)
Sequence (P21554 whole entry): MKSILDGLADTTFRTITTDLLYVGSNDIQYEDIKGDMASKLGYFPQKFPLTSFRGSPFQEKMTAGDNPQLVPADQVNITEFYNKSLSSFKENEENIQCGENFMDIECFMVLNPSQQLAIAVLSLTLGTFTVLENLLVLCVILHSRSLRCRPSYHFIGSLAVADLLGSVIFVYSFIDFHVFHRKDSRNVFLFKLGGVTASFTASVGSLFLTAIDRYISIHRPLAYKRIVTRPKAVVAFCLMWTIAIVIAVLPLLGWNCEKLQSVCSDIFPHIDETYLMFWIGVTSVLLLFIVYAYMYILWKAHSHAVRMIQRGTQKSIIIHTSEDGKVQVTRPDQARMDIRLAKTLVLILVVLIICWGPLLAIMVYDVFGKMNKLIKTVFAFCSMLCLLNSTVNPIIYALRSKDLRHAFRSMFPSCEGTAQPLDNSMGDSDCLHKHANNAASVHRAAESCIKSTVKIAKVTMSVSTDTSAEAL
pKi: −log10 of the molar value.
MEASURED METRIC: pKi

[
  {
    "MOLECULE": "CN=C(NS(=O)(=O)N1CCCC(F)C1)N1CC(c2ccccc2)C(c2ccc(Cl)cc2)=N1 (racemic)",
    "MEASURED METRIC": "pKi",
    "VALUE REPORTED": 7.80
  },
  {
    "MOLECULE": "CN/C(=N/S(=O)(=O)N1CCCCC1)N1CC(c2ccccc2)C(c2ccc(Cl)cc2)=N1 (stereo not shown) [compound 21, reference compound]",
    "MEASURED METRIC": "pKi",
    "VALUE REPORTED": 6.82
  },
  {
    "MOLECULE": "CN/C(=N\\S(=O)(=O)N1CCC(C(F)(F)F)CC1)N1CC(c2ccccc2)C(c2ccc(Cl)cc2)=N1 (racemic)",
    "MEASURED METRIC": "pKi",
    "VALUE REPORTED": 8.52
  },
  {
    "MOLECULE": "CN=C(NS(=O)(=O)N1CCC(F)(F)CC1)N1CC(c2ccccc2)C(c2ccc(Cl)cc2)=N1 (racemic)",
    "MEASURED METRIC": "pKi",
    "VALUE REPORTED": 8.00
  },
  {
    "MOLECULE": "CN/C(=N/S(=O)(=O)N1CCCCC1)N1C[C@H](c2ccccc2)C(c2ccc(Cl)cc2)=N1 [compound 24, reference compound]",
    "MEASURED METRIC": "pKi",
    "VALUE REPORTED": 7.24
  },
  {
    "MOLECULE": "CNC(=NS(=O)(=O)N1CCCCC1)N1C[C@@H](c2ccccc2)C(c2ccc(Cl)cc2)=N1 [compound 25, reference compound]",
    "MEASURED METRIC": "pKi",
    "VALUE REPORTED": 6.12
  },
  {
    "MOLECULE": "CN(C)/C(=N/S(=O)(=O)N1CCC(F)(F)CC1)N1CC(c2ccccc2)C(c2ccc(Cl)cc2)=N1 (stereo not shown)",
    "MEASURED METRIC": "pKi",
    "VALUE REPORTED": 7.60
  }
]
